- Target: Bacteriophage T7 RNA polymerase (wild type) (Escherichia phage T7, UniProt P00573)
- Construct: purchased Boehringer Mannheim
- Sequence (P00573 whole entry): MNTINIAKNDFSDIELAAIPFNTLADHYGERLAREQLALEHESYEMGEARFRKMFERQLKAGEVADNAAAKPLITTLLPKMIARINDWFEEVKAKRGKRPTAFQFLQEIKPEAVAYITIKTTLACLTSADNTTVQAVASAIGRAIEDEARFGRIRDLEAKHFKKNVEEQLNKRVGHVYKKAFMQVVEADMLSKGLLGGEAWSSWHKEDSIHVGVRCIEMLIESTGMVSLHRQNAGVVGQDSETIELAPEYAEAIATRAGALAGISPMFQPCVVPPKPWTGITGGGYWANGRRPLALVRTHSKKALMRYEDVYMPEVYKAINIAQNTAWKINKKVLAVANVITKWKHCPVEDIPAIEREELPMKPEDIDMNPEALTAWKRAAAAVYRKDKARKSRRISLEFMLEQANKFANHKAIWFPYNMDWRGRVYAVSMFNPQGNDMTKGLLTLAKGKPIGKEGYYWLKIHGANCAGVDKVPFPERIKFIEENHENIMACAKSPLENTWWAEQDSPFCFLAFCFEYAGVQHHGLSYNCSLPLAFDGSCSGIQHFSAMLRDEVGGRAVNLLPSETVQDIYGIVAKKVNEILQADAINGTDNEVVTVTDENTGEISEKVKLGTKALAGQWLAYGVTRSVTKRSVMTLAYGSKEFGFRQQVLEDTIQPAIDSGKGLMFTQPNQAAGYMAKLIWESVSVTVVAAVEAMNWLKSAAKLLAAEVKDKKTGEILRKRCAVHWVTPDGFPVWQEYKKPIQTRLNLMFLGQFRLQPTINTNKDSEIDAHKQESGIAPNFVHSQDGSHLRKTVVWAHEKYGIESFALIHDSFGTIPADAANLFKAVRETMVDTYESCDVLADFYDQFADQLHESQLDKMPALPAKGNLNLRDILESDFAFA
- Measurement description: biochemical
- Format: biochemical
- Conditions used: wild type T7 polymerase, commercial buffer, 37° C., 1 hour; label ATP; read-out: % ribo control
- Protocol: Bacteriophage T7 RNA polymerase was purchased from Boehringer Mannheim at 0.4 U/μL concentration. Applicant used the commercial buffer supplied with the enzyme and 0.2 μCi alpha-^32P NTP in a 50 μL reaction with nucleotides triphosphates at 2 mM each. The template was a double-stranded PCR fragment, which was used in previous screens. Reactions were carried out at 37° C. for 1 hour. Ten μL of the sample was run on a 7.5% analytical PAGE and bands were quantitated using a Phosphorlmager.

{"columns": ["Compound", "Reading unit", "activity at 2000 µM"],
 "data": [
  ["CSCO[C@@H]1[C@H](O)[C@@H](CO)O[C@H]1n1cnc2c(=O)[nH]c(N)nc21", "%", 3],
  ["NCCC(=O)N[C@@H]1[C@H](O)[C@@H](CO)O[C@H]1n1ccc(=O)[nH]c1=O", "%", 3],
  ["NC(Cc1ccccc1)C(=O)NC1C(O)[C@@H](CO)O[C@H]1n1ccc(=O)[nH]c1=O (stereo partly drawn)", "%", 1],
  ["CC(N)C(=O)NC1C(O)[C@@H](CO)O[C@H]1n1ccc(=O)[nH]c1=O (stereo partly drawn)", "%", 2],
  ["NO[C@@H]1[C@H](O)[C@@H](CO)O[C@H]1n1ccc(=O)[nH]c1=O", "%", 1],
  ["CSCO[C@@H]1[C@H](O)[C@@H](COP(=O)(O)OP(=O)(O)OP(=O)(O)O)O[C@H]1n1ccc(=O)[nH]c1=O", "%", 64]
]}
